Target: HLA-A*0201 (Homo sapiens, UniProt P04439, D140Y/D185E/D98H/E176V/E277Q/G131W/G231S/I119V/I121R/I166T/I218V/L300P/L318F/N151K/N90K/P208A/P217A/Q86G/Q94H/R138H/R169H/T345S)
Assay: Peptide-HLA binding (competition with Fl-labeled HLA-A*0201 binding peptide)
Ends that are not written are not given here.
// assign fulfilled if IC50 falls strictly below 4 µM, else not fulfilled (ties count as not fulfilled)

Below, 2 sequences whose answers are already recorded.
sequence_entry: HLCGSHLVEA [Peptide 5-14]
label: fulfilled
//
sequence_entry: LVEALYLVC [Peptide 11-19]
label: fulfilled

Prompt: # strict comparison: is reported IC50 < 4 µM? input = ALYLVCGER [Peptide 14-22]
Response: not fulfilled

Prompt: # strict comparison: is reported IC50 < 4 µM? input = HLVEALYLVCG [Peptide 10-20]
Response: fulfilled

Prompt: # strict comparison: is reported IC50 < 4 µM? input = SHLVEALYLV [Peptide 9-18]
Response: fulfilled
